# assayedSystem: Aromatase (Homo sapiens)
# Sequence (P11511 whole entry): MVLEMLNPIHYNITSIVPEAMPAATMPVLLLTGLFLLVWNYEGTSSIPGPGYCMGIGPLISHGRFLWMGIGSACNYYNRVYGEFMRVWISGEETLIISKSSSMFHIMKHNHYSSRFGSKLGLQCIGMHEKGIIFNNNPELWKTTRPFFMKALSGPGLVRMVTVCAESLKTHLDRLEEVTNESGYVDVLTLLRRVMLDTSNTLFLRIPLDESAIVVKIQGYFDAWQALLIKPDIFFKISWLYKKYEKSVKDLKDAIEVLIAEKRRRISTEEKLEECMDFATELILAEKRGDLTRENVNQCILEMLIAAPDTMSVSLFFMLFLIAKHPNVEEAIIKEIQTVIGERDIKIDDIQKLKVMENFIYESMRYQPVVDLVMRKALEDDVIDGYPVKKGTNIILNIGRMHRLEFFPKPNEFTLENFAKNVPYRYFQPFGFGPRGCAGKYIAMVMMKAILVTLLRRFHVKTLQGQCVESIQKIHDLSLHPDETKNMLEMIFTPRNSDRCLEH
# procedureSummary: Ratio of aminoglutethimide IC50 to compound IC50 for Homo sapiens (human) aromatase
Entries and their Ratio IC50 values follow.
Lab note: write the figure by itself, no unit.

[[record]]
smilesinput = "O=C1/C(=C/c2cccc(OCCCn3ccnc3)c2)Cc2ccccc21"
assaymetric = "Ratio IC50"
resultvalue = 42.5

[[record]]
smilesinput = "O=C1/C(=C/c2ccccc2OCCCn2ccnc2)Cc2ccccc21"
assaymetric = "Ratio IC50"
resultvalue = 26.6

[[record]]
smilesinput = "COc1cc(/C=C2\\Cc3ccccc3C2=O)ccc1OCCCn1ccnc1"
assaymetric = "Ratio IC50"
resultvalue = 54.1


Now for another entry.
Problem: Observed Ratio IC50 on Aromatase (Homo sapiens) for `COc1ccc(/C=C2\Cc3ccccc3C2=O)cc1OCCCn1ccnc1` , please.
Result: 22.5

###

Entries and their inhibition at 36 µM values follow.
# assayedSystem: Aromatase (Homo sapiens, UniProt P11511)
# procedureSummary: Inhibition of Homo sapiens (human) aromatase assessed as 3H2O formation using [1beta,2beta-3H]testosterone as substrate at 36 uM by liquid scintillation counting analysis
Give the value in % but do not write % after it.

Worked examples follow.
[[record]]
smilesinput = "O=C1/C(=C/c2cccc(OCCCCl)c2)Cc2ccccc21"
assayedsystem = "Aromatase (Homo sapiens, UniProt P11511)"
assaymetric = "inhibition at 36 µM"
unitabbreviation = "%"
resultvalue = 13

[[record]]
smilesinput = "O=C1/C(=C/c2ccccc2OCCCCl)Cc2ccccc21"
assayedsystem = "Aromatase (Homo sapiens, UniProt P11511)"
assaymetric = "inhibition at 36 µM"
unitabbreviation = "%"
resultvalue = 8


Problem: Observed inhibition at 36 µM on Aromatase (Homo sapiens, UniProt P11511) for `O=C1/C(=C/c2c[nH]c3ccccc23)Cc2ccccc21` , please.
Result: 6

Problem: Please do the same for `COc1ccc(/C=C2\Cc3ccccc3C2=O)cc1OCCCCl` as well.
Result: 8

Problem: Please do the same for `COc1cc(/C=C2\Cc3ccccc3C2=O)ccc1OCCCCl` as well.
Result: 8.5
